biological target: VR-NSP11 (PRRSV VR2332)
Sequence (Q9WJB2 3585-3807): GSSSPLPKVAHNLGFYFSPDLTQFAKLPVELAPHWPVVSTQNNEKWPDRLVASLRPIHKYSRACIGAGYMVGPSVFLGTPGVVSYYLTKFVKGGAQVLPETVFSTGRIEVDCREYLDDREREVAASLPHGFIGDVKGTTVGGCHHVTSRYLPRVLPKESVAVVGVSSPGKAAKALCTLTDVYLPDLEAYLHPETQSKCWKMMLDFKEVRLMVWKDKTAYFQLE
result-type: Kd

> print(dat)
                                   compound  result.type  result
1  CCc1c(C)nc(Nc2nc(C)c3ccc(OC)cc3n2)nc1O [A8-A2]           Kd   23 µM
